test system: MS2 coat protein; experiment: apparent KD of MS2 coat protein; designed switch direction (-1 OFF switch, 1 ON switch): 1; higher = weaker reporter binding; details: input ligand: FMN 200 uM
quantity-name: apparent KD of MS2 coat protein (nM)
State the answer as a number, implicitly in nM.

Worked set:
macromolecule-sequence: AAGCAUGAAAACAUGCAUAAAAAGUUUGUACAUGAGGAUCACCCAUGUAUGUGCAAGCUUUUUGCUCGUCUUGAAAA [JL SD Zipper 5] (Eterna round: R96, puzzle: Sensor for hsa-mir-208a)
scale-unit: nM
reported: 171
--
macromolecule-sequence: GUAGCAUACCGAGGAUAUUCAUAUAAUAAAUAACAUGAGGAUCACCCAUGUUGGCGAAAGCCUUGGGAGAAGGCGGAAUGCUAC [Xeonanis - 20 Mod56] (Eterna round: R96, puzzle: Same State NG 2)
scale-unit: nM
reported: 13.5
--
macromolecule-sequence: GGUGCCAAUAAAGCCUACAUGAGGAUCACCCAUGUAUGUAGGCAGGAUAUCGUUUGCAAAGCAAACGAGAAGGGCCUAGGCACC [Mat - Same State NG 3 - JL Mod - D61] (Eterna round: R96, puzzle: Same State NG 3)
scale-unit: nM
reported: 18.6
--
macromolecule-sequence: UGUUUGUUGUGAGGAUAUACAUACACCUUACAUGAGGAUCACCCAUGUUGUUACUUUGAUAGUUAGUAGAAGGCACUUGGUUAU [JR_SSNG2_Sub047] (Eterna round: R96, puzzle: Same State NG 2)
scale-unit: nM
reported: 94.9
--
macromolecule-sequence: UGGUACAUGGGAGGAUAUGGAGUGAAGACAUGAGGAUCACCCAUGUUAUAAAAGCCGAGAGGCAACUAGAAGGCCCAUGUACCU [JL SSNG1 3.93] (Eterna round: R96, puzzle: Same State NG 2)
scale-unit: nM
reported: 14.3

I would be grateful if you could share the reported apparent KD of MS2 coat protein for GCCAUCGCAUGAGGAUAUGGCACCGUUUCGGUGCCAGAAGGCAUGUCAAUUGACAUGAGGAUCACCCAUGUAUUAUUGAUGGCA [JL Fiskers NG1ss - 33 mod 7] (Eterna round: R96, puzzle: Same State NG 1) .
55.6

# lookup: apparent KD of MS2 coat protein of AUGCCAAAACGAGGAUAUGGAGCCUUAUUGGCUCCAGAAGGUGUGACAUGAGGAUCACCCAUGUGGCAGUGGUCUAAUGACCAC [Eli NG1ss - 40] (Eterna round: R96, puzzle: Same State NG 1)
94.2

State the recorded apparent KD of MS2 coat protein for this entry: GUUACAUGAGGAUCACCCAUGUAUGUGUGGGAGUAAGUGUCUUAGGAUAUCUAGUUUUUAAUUUAAGAGAAGGAAGAUUGUUGU [JMF's solution 52] (Eterna round: R96, puzzle: Same State NG 3)
151

====

system: MS2 coat protein; assay: apparent KD of MS2 coat protein; designed switch direction (-1 OFF switch, 1 ON switch): -1; higher = weaker reporter binding; details: input ligand: microRNA oligo, concentration not stated
quantity-name: apparent KD of MS2 coat protein (nM)
Please respond with the number in nM and leave the unit unwritten.

Answered cases to consult:
macromolecule-sequence: CCAUAUAACACAGGAUAUCAUCGCAACUGACGUUGAGAAGGGUGACAUGAGGAUCACCCAUGUGAUUUCUCAAUAUUAUACAUC [Prohibition 81 - Jieux - Exclusion NG 1] (Eterna round: R96, puzzle: Exclusion NG 1)
apparent KD of MS2 coat protein [nM]: 661

macromolecule-sequence: UAUAUAUAGUAAGGAUAUGUAUAUAUUUCAUAAACAGAAGGUACUGACAUGAGGAUCACCCAUGUUUUAGUGUGGGCAUGUAGA [JMF's solution 65] (Eterna round: R96, puzzle: Exclusion NG 1)
apparent KD of MS2 coat protein [nM]: 48

macromolecule-sequence: UUGUUUUCCGCAGGAUAUGCUCCUCUAUUACUAGCAGAAGGGCGUUGAACAUGAGGAUCACCCAUGUAUGUAAUUGCUUAUUGC [JR_ExcNG1_Sub074] (Eterna round: R96, puzzle: Exclusion NG 1)
apparent KD of MS2 coat protein [nM]: 17.5

From here, focus on the item given below.
Please report the recorded apparent KD of MS2 coat protein for GCGGUAUUCCCUGGAGUACCAUACAUGAGGAUCACCCAUGUAUAGGAUAUUGCAGGAGACAGCUGCGAGAAGGGUACAGGGUGU [Dierceza] (Eterna round: R96, puzzle: Exclusion NG 3) .
14.4

====

test system: MS2 coat protein; experiment: apparent KD of MS2 coat protein; higher = weaker reporter binding; details: Eterna round: R107; input ligand: arginine 13.2 mM
Where apparent KD of MS2 coat protein equals or exceeds 20 nM, the correct label is satisfied; where it does not, the label is not satisfied.

// inclusive: apparent KD of MS2 coat protein at least 20 nM? input: UAAUAAUCCAGGGUGUAGGUAAUAACAGAUACCAGCCAGAUAACUGGCCCUUGGCAGCUGAAAACCUGAGGAUCACCCAGGUAAA [TheoAS 23 #OpenEnded #MS2Late #AlternativeMS2]
satisfied

Assess whether reported apparent KD of MS2 coat protein for ACCUGUACGAAAAGUGCAGGACACGGAAUACGAGGACCGGUACGGCCGCCACUCGGAAAACCUGAGGAUCACCCUGGUAACCGUG [TrypAS 11 #AlternativeMS2 #Zipper #StaticStem] sits at 20 nM or higher.
satisfied

apparent KD of MS2 coat protein >= 20 nM for AGCCCUGUACUAGAUACCAGCUACAUGAGGAUCACCCAUGUGCGUCAAGACUGACUGUGUAGCCCUUGGCAGCUACUCGCAUGUA [Exclusion - Theophylline B (Freestyle 3)] ?
not satisfied

Kindly determine if apparent KD of MS2 coat protein recorded for CGCAACAUGAGGAUCACCCAUGUAAUGACGCGAGGACCGGUACGGCCGCCACUCGCCUGGCAGUGAGCGCAUGCGGCCUGGGUAU [Exclusion Tryp A GF8] is above or exactly 20 nM.
not satisfied

Please indicate if the recorded apparent KD of MS2 coat protein for AUCGUACCUGAUGAUACCAGCAUGUGAUCAUAACAUGAGGAUCACCCAUGUAAUCAGUGAUGCCCUUGGCAGCAUAGUCGAUACA [Same State - Theophylline B (Freestyle 6)] meets or exceeds 20 nM.
satisfied

# check: apparent KD of MS2 coat protein of AAUUUAAACGGAAGGAGCGUCACUUAAUAUCAACAUGAGGAUCACCCAUGUACGGGUUGUAGACAGGUAGGUCGCCGUCAUUUGA [#15 Same State - Arginine B] is greater than or equal to 20 nM
satisfied

Please tell me: is the sequence CGGUUUGUGAUGGAUACCAGCAGAGUGAAUGUUUAUCCUGACAUGAGGAUCACCCAUGUGUGCCCUUGGCAGCUGUUGUGGGCUG [8.Z] at or over 20 nM in terms of apparent KD of MS2 coat protein?
satisfied

I'd appreciate it if you could say whether ACAUGAGGAUCACCCAUGUCAAGGCACGAUACCAGCUGAUCCGGUGGCCCUUGGCAGCGUCACGUUUGGUCCCGCGGAUGACACG [p'pmullin] has apparent KD of MS2 coat protein at least equal to 20 nM.
satisfied

====

system: K4 kissing-loop RNA reporter; assay: apparent KD of K4 kissing-loop reporter; higher = weaker reporter binding; conditions: Eterna round: R107; input ligand: none
quantity-name: apparent KD of K4 kissing-loop reporter (nM)
Give a bare numeral; the unit nM is implied.

Guide cases for apparent KD of K4 kissing-loop reporter, answers given:
macromolecule-sequence: CCGAGCUACAGCGAUACCAGUGUGGAGUGAUGUUCCCUGGUCCGGGCUGUUGUUCCCUUGCGCCCUUGGCAGCGCAGAAGCAGCU [Exclusion Theophylline B GF 14]
reported: 367
//
macromolecule-sequence: AGGUGCUACGGAAGGAGCGCACCAGUGAUGUUGGUGUGUGACCGUGACAUGGCAGUCAAGGUGCAGGUAGGUCGCCGUGGCCAUA [Rigela]
reported: 140
//
macromolecule-sequence: GGUGUGCCAGUGAUGUUGGCAUAAACUGAAGGAGCGCGUGAAAACGCAGGUAGGUCGCAGAACCUUGCCAACUAUUUUAUUCACC [Ex Arginine A K4 25]
reported: 176

Please state recorded apparent KD of K4 kissing-loop reporter (tested on K4 kissing-loop RNA reporter) of CCCUCACGAGUGAUGUUCGUAGGGUACAGUCAGGAUAUCAUGCGGUUGAGAAGGGACAGAGAGGGCGGCGGCGGGUUGCUCAUCU [Isanausbe]
325

====

tested on: K4 kissing-loop RNA reporter; test: apparent KD of K4 kissing-loop reporter; higher = weaker reporter binding; conditions: Eterna round: R107; input ligand: theophylline 20 uM;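 also: bound reporter read as fluorescence of individual clusters on recovered sequencing chips by microscopy, with normalized cluster intensities fitted with a binding model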
quantity-name: apparent KD of K4 kissing-loop reporter (nM)
Your answer should be a plain number; it is taken to be in nM.

macromolecule-sequence: UGAUAGGACAGAAGGAGCGGAAGUGAUGUUUCCAAAUGGAUAAGGUGUCAAAAGACACCCUUCCAGGUAGGUCGCUGUCCUAUCU [ArgBX 14 #Palindromic #SwitchBubble #StaticStem]
reported: 102

macromolecule-sequence: GCGUAGAUUAGCAGUGAUGUUGCUACGGAAGGAGCGCGUGAAAACGCAGGUAGGUCGCCGACAAAAUUAAUUUUAAUGUCUGCGC [KL-SSArg-A6]
reported: 423

macromolecule-sequence: UGAUACCAGACGGCCGCCACUAGAGCUAGCAAAGCUAGCAAGUGAUGUUUGAGGAGUGAUGUUCCUAGGACCGGGUCUGGUAUCU [TrypBX 2 #Palindromic #SwitchBubble #StaticStem]
reported: 86.8

What apparent KD of K4 kissing-loop reporter value was documented for this sequence, UAGGAGUGAUGUUCCUAUAGCAGGUAGGAAGGAGCGCCCAUUUGGGCAGGUAGGUCGCCUACCGGCCCUAAGUUAAACCUUAGGC [Rariar] ?
109

Could you tell me which apparent KD of K4 kissing-loop reporter is on file for GGGAGUAGUGCGGCCGCCACUGAGAAAGAAGAAGAAUAUAGUGAUGUUAUGUGGGAAAGGAAGAACAGGACCGGGCAUUAGAUUU [#21 K4 Tryptophan B Same State] ?
441

# input sequence: UGUGAACAAAAGUAGAGUGGACCACUAUAGCGAGGACCGGUACGGCCGCCACUCGUACAUGUAUUCAGUGAUGUUGAAAUGAGCU [whbob_EX_Tryp_A_t15] ; wanted: its apparent KD of K4 kissing-loop reporter
362

I have this sequence here, UCGAGUUGACGAAAAGUCAACUCGUGAGAUACCAGUGACGAAAGUCACCCUUGGCAGCUCACUGCCAGUGAUGUUGGUGUAUAGA [#06 K4 Theophylline A Same State] , and I need its recorded apparent KD of K4 kissing-loop reporter.
996

Which measured apparent KD of K4 kissing-loop reporter value corresponds to AAACUUGCAGUGAUGUUGCAAGUAGGUGAUACCAGCAUCGAAAGAUGCCCUUGGCAGCACCAUCUUGCAACAAAGGUGCUGCCAA [(H1)-(H2)-(T1)-(T2)-(H)'-(T)'_Design7] ?
67.6

Please report the recorded apparent KD of K4 kissing-loop reporter for UGAUAAAGCAGUGAUGUUGCAAGUAAUGAUACCAGUUAAGAAGAGAACCCUUGGCAGCAUAAAGUGCGCUCUGAUGAGUGUGCUU [whbob_SS_Theo_A_w52] .
152

Which apparent KD of K4 kissing-loop reporter is reported for this sequence? CCUUGAGAGUGAUGUUCUCGAGUGAAAGUCAAGGAUAUCCCGCGGUGGAGAAGGUGAUGGCGAACUUGACUGCUGUCAGUCCUAA [theeternabot_exclusion_KL_FMN_A_10]
109

State the recorded apparent KD of K4 kissing-loop reporter for this entry: AGGCCACACAGCGAGUGAUGUUUGCGUUAUCGAGGACCGGUACGGCCGCCACUCGGCCUUUAGCGCCUUACCAAUUAGGUGUUGC [theeternabot_sameState_KL_Trp_A_46]
556

Would you kindly share the measured apparent KD of K4 kissing-loop reporter for `GCCGUACGCAUGGAUACCAGAUGGCACUAUUUUCUCCCAGAGUGAUGUUCUGGCCUGCCUAUCCCUUGGCAGCCAUGCGUACGGC` ?
488

Param item = AAGGUAUCACCAACAUUGCAAGAAGGUGAUACCAGCAUCGAAAGAUGCCCUUGGCAGCACCAACUUGCAGUGAUGUUGCAAGUAA [(T)'-(H)'-(T1)-(T2)-(H1)-(H2)_Design8] ; retrieve measured apparent KD of K4 kissing-loop reporter.
213

Would you kindly share the measured apparent KD of K4 kissing-loop reporter for GGCAUAGUCUCAACGUGUGGUUGGGUUGGGAAGGAUAUUUGAUCGAAAAGAAGGUCCCGCAUUGAGUGAUGUUCAAGGGCUCCAA [theeternabot_exclusion_KL_FMN_A_26] ?
213

Any idea what its apparent KD of K4 kissing-loop reporter is? The sequence is AGGUGCUACGGAAGGAGCGCACCAGUGAUGUUGGUGUGUGACCGUGACAUGGCAGUCAAGGUGCAGGUAGGUCGCCGUGGCCAUA [Rigela]
156
